- Study System: T1, Fc-tagged cynomolgus PD-1 (cynomolgus, UniProt B0LAJ3 25-170)
- T1 construct: Printed 'Fe-tagged', read as Fc-tagged; also called cyno PD-1; Fe-tagged cynomolgus PD-1 (so in the source)
- T1 sequence (B0LAJ3 entry or part of it limits assumed): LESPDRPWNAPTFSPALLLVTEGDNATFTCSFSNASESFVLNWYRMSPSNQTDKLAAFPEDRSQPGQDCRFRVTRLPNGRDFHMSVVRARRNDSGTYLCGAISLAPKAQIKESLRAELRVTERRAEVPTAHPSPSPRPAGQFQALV
- Assay Procedure: BLI (biosensor): Fc-tagged PD-1 on anti-human IgG Fc tips, fragment in solution
- Method: Anti-human IgG Fc (AHC) or Streptavidin (SA) biosensor were equilibrated in assay buffer for 20 minutes. Fe-tagged mouse and cynomolgus PD-1 was diluted to 5 μg/mL and biotinylated huPD-1 article was diluted to 0.5 μg/mL in assay buffer (1×PBS, 1% BSA, 0.05% Tween20). […] PD-1 was loaded on tips for 180 s followed by a 180 s association phase with PD-1 and 180 s dissociation phase in assay buffer.

| Binder | Reading Unit | Kd |
| --- | --- | --- |
| Fab moiety of the PD1AB38 (Fab, V domains shown, also called PD1AB38 Fab) VH: EVQLVQSGAEVKKPGASVKVSCKASGYSFTTYYMHWVRQAPGQGLEWMGIINPSGGSTSYAQKFQGRVTMTRDTSTSTVYMELSSLRSEDTAVYYCASGWVYWGQGTLVTVSS VL: DIQMTQSPSSLSASVGDRVTITCQASRDIKNYLAWYQQKPGKAPKLLIYAASSLQSGVPSRFSGSGSGTDFTLTISSLQPEDFATYYCQQSYSTPPTFGPGTKVDIK | nM | 172 |
| scFv moiety of the PD1AB53 (scFv, also called PD1AB53 scFv) scFv: DIQMTQSPSSLSASVGDRVTITCQASRDIKNYLAWYQQKPGKAPKLLIYAASSLQSGVPSRFSGSGSGTDFTLTISSLQPEDFATYYCQQSYSTPPTFGCGTKVDIKGGGGSGGGGSGGGGSGGGGSEVQLVQSGAEVKKPGASVKVSCKASGYSFTTYYMHWVRQAPGQCLEWMGIINPSGGSTSYAQKFQGRVTMTRDTSTSTVYMELSSLRSEDTAVYYCASGWVYWGQGTLVTVSS | nM | 1170 |
| scFv moiety of the PD1AB37 (scFv, also called PD1AB37 scFv) scFv: EVQLLESGGGLVQPGGSLRLSCAASGFTFSSYDMSWVRQAPGKGLEWVSGITISGGSTYYADSVKGRFTISRDNSKNTLYLQMNSLRAEDTAVYYCARGRGGSGWLDYWGQGTTVTVSSGGGGSGGGGSGGGGSGGGGSDIVMTQSPDSLAVSLGERATINCKSSQSVLYSPNNKNYLAWYQQKPGQPPKLLIYWASTRESGVPDRFSGSGSGTDFTLTISSLQAEDVAVYYCQQYYTTPPTFGQGTRLEIK | nM | 58.6 |
| scFv moiety of the PD1AB38 (scFv, also called PD1AB38 scFv) scFv: EVQLLESGGGLVQPGGSLRLSCAASGFTFSSYDMSWVRQAPGKGLEWVSGITISGGSTYYADSVKGRFTISRDNSKNTLYLQMNSLRAEDTAVYYCARGRGGSGWLDYWGQGTTVTVSSGGGGSGGGGSGGGGSGGGGSDIVMTQSPDSLAVSLGERATINCKSSQSVLYSPNNKNYLAWYQQKPGQPPKLLIYWASTRESGVPDRFSGSGSGTDFTLTISSLQAEDVAVYYCQQYYTTPPTFGQGTRLEIK | nM | 58.6 |

Reference source: patent US20240052034A1
